# experimental-target: SARS-CoV-2 (WIV02 isolate) prefusion stabilized spike trimer protein (UniProt P0DTC2 14-1213)
# assay-info: ELISA
Entries and their pIC50 values follow.
# pIC50: negative log10 of molar concentration; output just the value

Examples from the recorded data:
[
  {
    "binder": "2-G20-A (antibody, V domains shown) VH: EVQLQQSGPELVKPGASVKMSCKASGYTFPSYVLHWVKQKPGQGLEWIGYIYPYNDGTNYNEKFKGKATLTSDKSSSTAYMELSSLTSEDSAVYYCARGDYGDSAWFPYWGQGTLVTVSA VL: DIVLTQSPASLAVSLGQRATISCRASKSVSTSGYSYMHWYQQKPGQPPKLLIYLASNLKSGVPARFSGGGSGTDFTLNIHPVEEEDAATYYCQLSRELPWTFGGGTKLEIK",
    "pIC50": 7.74
  },
  {
    "binder": "10-O24-A (antibody, V domains shown) VH: QAYLQQSGAELVRPGASVKMSCKASGYTFTSYSMHWVKQTPRQGLEWIGAIYPGNDDTSYNQKFKGKATLTVDRSSSTAYMQLSSLTSEDSAVYFCTRDYSNYPFDYWGQGTTLTVSS VL: DIVLTQSPASLAVFLGQRATISCRASKSVSTSGYSYMHWYQQRPGQPPKLLIYLASNLESGVPARFSGSGSGTDFTLNIHPVEEEDAATYYCQHSRELPPTFGGGTKLEIK",
    "pIC50": 8.23
  }
]

[in] Value lookup for pIC50; key = 4-M3-A (antibody, V domains shown) VH: EVQLQQSGPELVKPGDSVKISCKASGYSFTGYFMNWVMQSHGKSLEWIGRINPNNGETFYNQKFKGKATLTVDKSSDTAHMELRSLTSEDSAVYYCARGGTGTGWGQGTTLTVSS VL: DILMTQSPSSMSVSLGDTVSITCHASQGISSNIGWLQQKPGKSFKGLIYYGTNLEDGVPSRFSGSGSGADYSLTISSLESEDLADYYCIQYAQFPYTFGGGTKLEIK
[out] 8.13
